- procedure.text: Average inhibitory concentration against 60 human cell lines was reported
- Assay type: functional
assay.readout: IC50 (nM)

# count of solved cases: 4
- structure.notation: "CC(=O)OCCOc1cc2c([nH]c3ccccc32)c(C)c2cccc1-2"
  IC50 (nM): 2750
- structure.notation: "Cc1c2cccc-2c(N(C)C)cc2c1[nH]c1ccccc12"
  IC50 (nM): 3980
- structure.notation: "CC(=O)Oc1ccc2[nH]c3c(C)c4cccc-4ccc3c2c1"
  IC50 (nM): 2190
- structure.notation: "Cc1c2cccc-2ccc2c1[nH]c1ccccc12"
  IC50 (nM): 2400

1. Cc1c2cccc-2c(OCCO)cc2c1[nH]c1ccccc12
2. Cc1c2cccc-2ccc2c1[nH]c1ccc(Br)cc12
Exercise: In the pair 1 and 2 , the larger recorded IC50 belongs to which? Choose, then provide that item's label.
Key: 2
